Please provide measured pIC50 for the entries that follow.
target: UniProtKB O00519; experiment: Assay Method 2: FAAH assay, homogenate of SK-N-MC cells transfected with human FAAH; assay type: biochemical; design: expressed in transfected cells; host or cells: SK-N-MC cells, electroporated, G418-selected clones; settings: human FAAH transfected SK-N-MC cell homogenate; 3H-AEA tracer 80 nM; rt 1 h
// pIC50 here means minus log10 of the molar concentration (mol/L)

Lookup: Please look at this compound and report its pIC50: O=C(Nc1ccccc1)N1CCN(c2nc(N3CCCC3)ns2)CC1 [Example 28]
Found: 5.52

Lookup: Give pIC50 for O=C(Nc1nccs1)N1CCN(c2nc(-c3ccccc3)ns2)CC1 [Example 32]
Found: 6.35

Lookup: Consider the compound O=C(Nc1ccccc1F)N1CCN(c2nc(-c3ccccc3)ns2)CC1 [Example 21] . State its measured pIC50.
Found: 7.72

Lookup: Note pIC50 for the compound shown: O=C(Nc1ccccc1)N1CCN(c2nc(-c3cc(Cl)cc(Cl)c3)ns2)CC1 [Example 39]
Found: 7.22

Lookup: Specify pIC50 for O=C(Nc1ccccc1)N1CCN(c2nc(-c3ccoc3)ns2)CC1 [Example 41] and stop.
Found: 6.46

Lookup: Let me know recorded pIC50 for O=C(Nc1ncccn1)N1CCN(c2nc(-c3ccccc3)ns2)CC1 [Example 31] , thanks.
Found: 6.80

Lookup: Recall and state the measured pIC50 for Cc1cccc(-c2nsc(N3CCN(C(=O)Nc4ccccc4)CC3)n2)c1 [Example 38] .
Found: 7.37

Lookup: Read off the recorded pIC50 for O=C(Nc1ccccc1)N1CCN(c2nc(-c3ccsc3)ns2)CC1 [Example 43]
Found: 6.89

Lookup: Give pIC50 for the following compound: O=C(Nc1ccccc1)N1CCN(c2nc(-c3ccco3)ns2)CC1 [Example 40]
Found: 6.27

* * *

Please go through the items and note down their pIC50.
Biological target: FAAH (Homo sapiens, UniProt O00519)
Sequence (O00519 1-579): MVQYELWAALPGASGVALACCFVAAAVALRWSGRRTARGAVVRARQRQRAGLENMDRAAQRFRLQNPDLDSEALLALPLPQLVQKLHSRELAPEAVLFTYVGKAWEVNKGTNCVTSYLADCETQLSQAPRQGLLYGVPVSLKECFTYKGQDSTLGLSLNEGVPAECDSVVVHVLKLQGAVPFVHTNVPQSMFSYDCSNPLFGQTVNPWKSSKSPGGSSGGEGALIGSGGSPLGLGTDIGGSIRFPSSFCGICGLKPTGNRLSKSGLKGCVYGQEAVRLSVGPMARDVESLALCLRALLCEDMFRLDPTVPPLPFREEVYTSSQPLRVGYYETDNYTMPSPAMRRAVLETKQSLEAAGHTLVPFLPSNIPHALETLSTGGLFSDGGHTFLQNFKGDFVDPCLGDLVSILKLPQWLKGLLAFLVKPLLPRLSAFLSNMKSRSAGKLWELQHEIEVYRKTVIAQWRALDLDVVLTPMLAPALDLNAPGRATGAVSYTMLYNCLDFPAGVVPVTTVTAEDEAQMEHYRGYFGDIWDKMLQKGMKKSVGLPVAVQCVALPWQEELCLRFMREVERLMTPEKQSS
Assay: Assay Method 1: FAAH assay, T84 cell homogenate, 3H-anandamide hydrolysis
Type: biochemical
Parameters: T84 frozen pellets (contents of 1-4×15 cm culture dishes) were homogenized in 300 mL of FAAH assay buffer; endogenous in cells; host or cells: T84 cells (homogenate)
Settings: 3H-AEA tracer 200 nM, rt 1 h
Interpret pIC50 as the negative base-10 log of the concentration measured in mol/L.

Lookup: Give recorded pIC50. O=C(Nc1cccc(F)c1)N1CCN(c2nc(-c3ccccc3)ns2)CC1
Found: 7.22

Lookup: State its pIC50: Cc1ccc(NC(=O)N2CCN(c3nc(-c4ccccc4)ns3)CC2)cc1
Found: 6.11

Lookup: For the molecule COc1cccc(NC(=O)N2CCN(c3nc(-c4ccccc4)ns3)CC2)c1 , give its reported pIC50.
Found: 5.60

Lookup: Output pIC50 of O=C(Nc1cccc(Cl)c1)N1CCN(c2nc(-c3ccccc3)ns2)CC1
Found: 6.57

Lookup: Tell us which pIC50 value is on record for O=C(Nc1ccccc1[N+](=O)[O-])N1CCN(c2nc(-c3ccccc3)ns2)CC1
Found: 6.70

Lookup: Give a short answer stating reported pIC50 for O=C(Nc1ccccc1F)N1CCN(c2nc(-c3ccccc3)ns2)CC1 .
Found: 7.60

Lookup: Look up and report measured pIC50 for this entry: CSc1ccccc1NC(=O)N1CCN(c2nc(-c3ccccc3)ns2)CC1
Found: 5.89

Lookup: Let me know recorded pIC50 for O=C(Nc1ccc2ccccc2c1)N1CCN(c2nc(-c3ccccc3)ns2)CC1 , thanks.
Found: 5.30

Lookup: Look up pIC50 of O=C(Nc1ccc(F)cc1)N1CCN(c2nc(-c3ccccc3)ns2)CC1 and report it.
Found: 7.05

Lookup: Please look at this molecule and report its pIC50: O=C(Nc1ccncc1)N1CCN(c2nc(-c3ccccc3)ns2)CC1
Found: 7.55

Lookup: Specify pIC50 for O=C(Nc1ccc(-c2ccccc2)cc1)N1CCN(c2nc(-c3ccccc3)ns2)CC1 and stop.
Found: 5.40

Lookup: Given O=C(Nc1ccccc1Cl)N1CCN(c2nc(-c3ccccc3)ns2)CC1 , respond with its pIC50.
Found: 7.52

Lookup: In one line, give reported pIC50 of the entry COc1ccc(NC(=O)N2CCN(c3nc(-c4ccccc4)ns3)CC2)cc1 .
Found: 6.85
